assay: Log P measurement (1-octanol/phosphate buffer, UV); assay type: physicochemical; conditions: 1-octanol / 0.02 M phosphate buffer; 1-octanol / phosphate buffer pH 7.4
attribute measured: logP

>>> print(df.to_string())
                                   compound  attribute_measured  reported_value
0  NC1=NC2(CCN(C(=O)c3ccc(F)cc3)CC2)Nc2c(F)ccc(F)c21                logP             1.4
1  NC1=NC2(CCN(C(=O)c3ccc([18F])cc3)CC2)Nc2c(F)ccc(F)c21 [[^18F]FBAT]                logP             1.4

Data provenance is paper PMC8328489.
